# Assayed System: IRAK4 (Homo sapiens)
# Protocol Text: Reaction Biology NanoBRET target engagement assay in HEK-293 cells, IRAK4
# Experimental Conditions: NanoBRET IRAK4 IC50, HEK-293 cells
Outcome Measure: pIC50
The scale used: pIC50 is minus the common logarithm of the concentration in molar units.

CC(O)(c1cn2c(-c3ccnc(N[C@@H]4CCCNC4)n3)cnc2cn1)C(F)(F)F (single isomer, unassigned) [Compound 68]
8.52

Query: Respond only with pIC50 recorded for CC(C)(O)c1ccc2ncc(-c3cncc(N[C@H]4CNCC[C@@H]4F)n3)n2c1 [Compound 18]
Result: 9.10

Query: Respond only with pIC50 recorded for COc1ccn2c(-c3ccnc(N[C@H]4CNC[C@@H]4F)n3)cnc2c1 [Compound 28]
Result: 9.15

====

# Assayed System: FLT3 ITD, D835V (Homo sapiens, UniProt P36888, D835V, form not given)
# Protocol Text: DiscoverX KINOMEscan competition binding, FLT3 ITD, D835V
# Experimental Conditions: read-out: FLT3 ITD, D835V Kd
List of pKd values.
The scale used: pKd is minus the common logarithm of the concentration in molar units.

COc1cc2ncc(-c3ccnc(N[C@@H]4CCCNC4)n3)n2cc1C(C)(C)O
11.05

Query: Respond only with pKd recorded for COc1cc2ncc(-c3ccnc(N[C@H]4CNC[C@@H]4F)n3)n2nc1C1CC1
Result: 10.40

Query: Respond only with pKd recorded for COc1cc2ncc(-c3cncc(N[C@H]4CNC[C@@H]4F)n3)n2nc1C1CC1
Result: 10.24

====

# Assayed System: FLT3 ITD, D835V (Homo sapiens, UniProt P36888, D835V, form not given)
# Protocol Text: DiscoverX KINOMEscan competition binding, FLT3 ITD, D835V
# Experimental Conditions: read-out: FLT3 ITD, D835V Kd
Outcome Measure: pKd
The scale used: pKd is minus the common logarithm of the concentration in molar units.

Query: Respond only with pKd recorded for F[C@H]1CCNC[C@@H]1Nc1cncc(-c2cnc3cc(OC4CC4)ccn23)n1
Result: 10.46

Query: Respond only with pKd recorded for COc1cc2ncc(-c3cncc(N[C@H]4CNCC[C@@H]4F)n3)n2nc1C1CC1
Result: 10.35

Query: Respond only with pKd recorded for COc1cc2ncc(-c3ccnc(N[C@H]4CNCC[C@@H]4F)n3)n2nc1C1CC1
Result: 10.15

Query: Respond only with pKd recorded for CC(O)(c1cn2c(-c3ccnc(N[C@H]4CNCC[C@@H]4F)n3)cnc2cn1)C(F)(F)F (single isomer, unassigned)
Result: 10.10

====

# Test system: MOLM14(D835Y) cells
# Format: cell-based
# Experimental Conditions: MOLM14(D835Y) cells, 10 × 10; combination with Trametinib
Outcome Measure: Excess HSA Score
I'd appreciate a reply containing only the number, no unit.

Examples with their reported Excess HSA Score follow.
COc1cc2ncc(-c3ccnc(N[C@@H]4CCCNC4)n3)n2cc1C(C)(C)O
−420
F[C@H]1CCNC[C@@H]1Nc1cncc(-c2cnc3cc(OC4CC4)ccn23)n1
−87.67
FC(F)COc1ccn2c(-c3ccnc(N[C@H]4CNCC[C@@H]4F)n3)cnc2c1
−226.8

Below: the item to evaluate.
Query: Respond only with Excess HSA Score recorded for COc1cc2ncc(-c3cncc(N[C@H]4CNCC[C@@H]4F)n3)n2nc1C1CC1
Result: −336.8

====

List of IC50 values.
# Assayed System: IRAK4 (Homo sapiens, UniProt Q9NWZ3)
# Sequence (Q9NWZ3 1-460): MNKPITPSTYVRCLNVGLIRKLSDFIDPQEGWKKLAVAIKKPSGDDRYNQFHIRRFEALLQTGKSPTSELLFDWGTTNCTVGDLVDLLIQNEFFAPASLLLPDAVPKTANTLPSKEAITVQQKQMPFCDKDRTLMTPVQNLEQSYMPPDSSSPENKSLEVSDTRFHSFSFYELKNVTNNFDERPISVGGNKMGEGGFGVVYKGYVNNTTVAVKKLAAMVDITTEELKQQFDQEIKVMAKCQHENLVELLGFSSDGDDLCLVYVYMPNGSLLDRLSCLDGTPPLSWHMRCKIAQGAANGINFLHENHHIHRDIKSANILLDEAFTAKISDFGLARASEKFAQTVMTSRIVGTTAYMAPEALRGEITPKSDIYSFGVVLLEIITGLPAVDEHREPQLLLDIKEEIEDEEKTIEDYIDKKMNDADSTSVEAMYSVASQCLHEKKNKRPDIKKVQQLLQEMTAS
# Protocol Text: RBC HotSpot Kinase Assay, IRAK4
# Experimental Conditions: IRAK4 IC50
Express the result in nM but write the number alone.

F[C@H]1CCNC[C@@H]1Nc1nccc(-c2cnc3cc(OC4CC4)ccn23)n1
2
c1cn2c(-c3cncc(N[C@@H]4CCCNC4)n3)cnc2cc1OC1CC1
5
CC(O)(c1cn2c(-c3ccnc(N[C@@H]4CCCNC4)n3)cnc2cn1)C(F)(F)F (single isomer, unassigned) [Compound 67]
22
CC(O)(c1cn2c(-c3cncc(N[C@H]4CNC[C@@H]4F)n3)cnc2cn1)C(F)(F)F (single isomer, unassigned) [Compound 77]
4

Below: the item to evaluate.
Query: Respond only with IC50 recorded for F[C@H]1CCNC[C@@H]1Nc1cncc(-c2cnc3cc(OC4CC4)ccn23)n1
Result: 2

====

List of Excess HSA Score values.
# System: MOLM14(D835Y) cells
# Assay type: cell-based
# Experimental Conditions: MOLM14(D835Y) cells, 10 × 10; combination with SNDX-5613

Examples with their reported Excess HSA Score follow.
COc1ccn2c(-c3cncc(N[C@@H]4CCCNC4)n3)cnc2c1
−465.3
FC(F)COc1ccn2c(-c3ccnc(N[C@H]4CNCC[C@@H]4F)n3)cnc2c1
95.25
COc1ccn2c(-c3ccnc(N[C@H]4CNC[C@@H]4F)n3)cnc2c1
49.85

Query: Respond only with Excess HSA Score recorded for COc1cc2ncc(-c3ccnc(N[C@@H]4CCCNC4)n3)n2nc1C1CC1
Result: −229.3

Query: Respond only with Excess HSA Score recorded for COc1cc2ncc(-c3ccnc(N[C@H]4CNCC[C@@H]4F)n3)n2cc1C(C)(C)O
Result: 58.42

Query: Respond only with Excess HSA Score recorded for COc1cc2ncc(-c3ccnc(N[C@@H]4CCCNC4)n3)n2cc1C(C)(C)O
Result: 3.1084

====

# Test system: THP1 cells
# Protocol Text: Combination drug screening, Cell Titer Glo, 10 × 10 matrix, THP1 cells
# Type: cell-based
# Experimental Conditions: THP1 cells, 10 × 10; combination with (+)-BAY-1251152
Outcome Measure: Excess HSA Score
I'd appreciate a reply containing only the number, no unit.

Examples with their reported Excess HSA Score follow.
COc1cc2ncc(-c3ccnc(N[C@H]4CNCC[C@@H]4F)n3)n2cc1C(C)(C)O
−402.7072
COc1ccn2c(-c3ccnc(N[C@H]4CNC[C@@H]4F)n3)cnc2c1
−347.5

Query: Respond only with Excess HSA Score recorded for CC(O)(c1cn2c(-c3ccnc(N[C@H]4CNCC[C@@H]4F)n3)cnc2cn1)C(F)(F)F (single isomer, unassigned)
Result: −155.7

Query: Respond only with Excess HSA Score recorded for F[C@H]1CCNC[C@@H]1Nc1cncc(-c2cnc3cc(OC4CC4)ccn23)n1
Result: −730.8

Query: Respond only with Excess HSA Score recorded for COc1cc2ncc(-c3ccnc(N[C@@H]4CCCNC4)n3)n2nc1C1CC1
Result: −396.5

Query: Respond only with Excess HSA Score recorded for COc1cc2ncc(-c3cncc(N[C@H]4CNCC[C@@H]4F)n3)n2nc1C1CC1
Result: −308.4

Query: Respond only with Excess HSA Score recorded for FC(F)COc1ccn2c(-c3ccnc(N[C@H]4CNCC[C@@H]4F)n3)cnc2c1
Result: −13.85

====

# Tested on: THP1 cells
# Protocol Text: Combination drug screening, Cell Titer Glo, 10 × 10 matrix, THP1 cells
# Type: cell-based
# Experimental Conditions: starting conc. 20000 nM; with Azacitidine (5-Azacytidine) starting conc. 20000 nM
Outcome Measure: Excess HSA Score
I'd appreciate a reply containing only the number, no unit.

Cc1cnc(-c2ccc(-c3ccc(NC(=O)Nc4c(F)cc(F)cc4F)cc3F)c3c2C(=O)NC3)[nH]1 [CG-806, reference compound]
−425.4
CCc1nc(C(N)=O)c(Nc2ccc(N3CCC(N4CCN(C)CC4)CC3)c(OC)c2)nc1NC1CCOCC1 [Gilteritinib hemifumarate, Gilteritinib, reference compound]
−391.5
Cc1cc(-c2nc(C(=O)Nc3cc4oc(N5CCOCC5)nc4nc3N3CC[C@@H](O)C3)co2)ccn1 [CA-4948, reference compound]
−562.3
COc1cc2ncc(-c3ccnc(N[C@@H]4CCCNC4)n3)n2nc1C1CC1
−347.5

Below: the item to evaluate.
Query: Respond only with Excess HSA Score recorded for COc1cc2ncc(-c3cncc(N[C@H]4CNCC[C@@H]4F)n3)n2nc1C1CC1
Result: −703.5
